B1: NP_009172.2 (parent)
chain: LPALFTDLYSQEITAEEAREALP

Variants of: B1
methodNotes: protein stability index of a GFP-peptide fusion (GPS, HEK-293T) (PSI 1-6); higher = more stable;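 also: lentivirally expressed fusion library, cells FACS-sorted into six equal-sized GFP/DsRed ratio bins, PSI computed from sequencing read fractions per bin weighted by bin number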
conditions: c terminus: native
readoutType: protein stability index
Numbers only.

- F5L: 5.16
- S10E: 2.48
- E16I: 2.99
- S10H: 2.85
- E20W: 2.42

For every record below, what is its protein stability index?
1. E17P
2. R19W
3. L4A
4. I13F
5. P23S
6. D7V
7. T6P

Result:
2.73
2.56
3.64
2.69
4.8
2.58
5.24

For every record below, what is its protein stability index?
1. L8N
2. A21M
3. P23T
4. A18D
5. A21S
6. L4R

Result:
[3.46, 2.23, 4.6, 3.24, 2.7, 2.21]

For every record below, what is its protein stability index?
1. S10M
2. P2M
3. L22C
4. P2G
5. E12M
6. T14V
7. E17F

Result:
1: 2.26; 2: 2.79; 3: 2.65; 4: 3.03; 5: 2.93; 6: 2.51; 7: 2.38
